TESTED_TARGET: furin, P09958;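 also: purified furin at 1:10 enzyme:substrate in 50 mM HEPES pH 7.5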
Sequence (P09958 whole entry): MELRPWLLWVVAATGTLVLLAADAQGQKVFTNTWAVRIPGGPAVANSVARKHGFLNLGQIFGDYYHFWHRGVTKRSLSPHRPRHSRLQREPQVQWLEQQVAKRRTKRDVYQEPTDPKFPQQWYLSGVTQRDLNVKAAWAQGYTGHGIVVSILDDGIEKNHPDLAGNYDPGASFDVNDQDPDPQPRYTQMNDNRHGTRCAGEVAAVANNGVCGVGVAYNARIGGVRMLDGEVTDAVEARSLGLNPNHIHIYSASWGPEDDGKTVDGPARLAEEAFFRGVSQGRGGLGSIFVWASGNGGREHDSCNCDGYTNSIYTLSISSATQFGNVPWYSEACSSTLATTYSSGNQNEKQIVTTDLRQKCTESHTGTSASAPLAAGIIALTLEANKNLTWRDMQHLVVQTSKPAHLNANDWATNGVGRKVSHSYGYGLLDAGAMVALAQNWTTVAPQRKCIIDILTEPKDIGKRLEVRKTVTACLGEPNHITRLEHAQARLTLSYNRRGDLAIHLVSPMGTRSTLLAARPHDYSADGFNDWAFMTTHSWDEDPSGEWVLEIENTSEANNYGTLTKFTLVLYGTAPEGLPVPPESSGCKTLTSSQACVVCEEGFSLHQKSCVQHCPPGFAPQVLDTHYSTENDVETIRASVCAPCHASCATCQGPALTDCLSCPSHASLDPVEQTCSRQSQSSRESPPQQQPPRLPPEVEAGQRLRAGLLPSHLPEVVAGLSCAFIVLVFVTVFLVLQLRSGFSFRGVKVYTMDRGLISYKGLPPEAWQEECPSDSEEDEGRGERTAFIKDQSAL
EXPERIMENT: furin cleavage Z-score vs untreated control; higher = more cleavage, active = 3.5 or more, inactive = 1 or less, 8 variable residues between constant flanks
CONDITION: 30 min
Some of the results follow. The true hit rate is not given.
Give one outcome, nothing more. List: y for active, n for inactive

SEQUENCE	CLASS_ASSIGNMENT
CARLSRPDSGAGNASASA [FS-1749]	n

Ask: Status in this test for CAIPSRRPRFAGNASASA [FS-255] ?
Result: y

Ask: Status in this test for CARLSRFPRFAGNASASA [FS-490] ?
Result: y

Ask: Status in this test for CAYLVAYQATAGNASASA [HC953] ?
Result: n
